B1: SLC2A12 (parent)
chain: TRIMIGLTLVFFVQITGQPNILFY

Variants of: B1
test.details: protein stability index of a GFP-peptide fusion (GPS, HEK-293T) (PSI 1-6); higher = more stable;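 also: lentivirally expressed fusions sorted by FACS into six bins by GFP to DsRed ratio, PSI derived from sequencing read proportions per bin multiplied by bin number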
test.parameters: c terminus: a fixed tail appended
In this section we review reported protein stability index values for a set of variants.
Reply: number alone, nothing else.

N20C    3.04
Q18H    3.08
G17N    3.03
F12K    2.95

Then there is this variant:
protein stability index for L22S is 3.01
